Test system: Mus musculus
Test: Gastrointestinal toxicity in Mus musculus Swiss albino (mouse) assessed as ratio of ulcer at 100 mg/kg, po measured after 2 hr
Type: organism-based
Set-up: dose 100 mg/kg, route oral
Details: in vivo
QUANTITY_MEASURED: Activity

Sample records with Activity:
1. O=C(Cn1c(=O)sc2cc(C(=O)c3ccccc3)ccc21)Nc1ccccc1: Non-toxic
2. Cc1cccc(NC(=O)Cn2c(=O)sc3cc(C(=O)c4ccccc4Cl)ccc32)n1: Non-toxic
3. O=C(Cn1c(=O)sc2cc(C(=O)c3ccccc3)ccc21)Nc1ccccn1: Non-toxic
4. O=C(Cn1c(=O)sc2cc(C(=O)c3ccccc3Cl)ccc21)Nc1cccc(Cl)c1: Non-toxic
5. O=C(Cn1c(=O)sc2cc(C(=O)c3ccccc3)ccc21)Nc1ccc(Cl)cc1: Non-toxic

Quick one: Activity of "O=C(Cn1c(=O)sc2cc(C(=O)c3ccccc3F)ccc21)Nc1ccccc1" ?
Non-toxic

And the next one, "Cc1cccc(NC(=O)Cn2c(=O)sc3cc(C(=O)c4ccccc4)ccc32)n1" ?
Toxic

And the next one, "O=C(Cn1c(=O)sc2cc(C(=O)c3ccccc3Cl)ccc21)Nc1ccccc1" ?
Non-toxic

And the next one, "O=C(Cn1c(=O)sc2cc(C(=O)c3ccccc3F)ccc21)Nc1ccc(Cl)cc1" ?
Non-toxic

And the next one, "Cc1ccnc(NC(=O)Cn2c(=O)sc3cc(C(=O)c4ccccc4Cl)ccc32)c1" ?
Toxic
